Dear all, this message contains IC50 results, target or system eqBChE (Equus caballus).
quantity: IC50 (µM)

INSERT INTO results (molecule, test_system, experimental_result) VALUES
  ('C[C@]12CCC(NC(=S)Nc3ccc(S(N)(=O)=O)cc3)CC1=CC[C@@H]1[C@@H]2CC[C@]2(C)C(C(=O)CNCCc3ccccc3)CC[C@@H]12 (some centres unmarked)', 'eqBChE (Equus caballus)', 12.8),
  ('CC(=O)C1CC[C@H]2[C@@H]3CC=C4CC(NC(=S)Nc5ccc(S(N)(=O)=O)cc5)CC[C@]4(C)[C@H]3CC[C@]12C (some centres unmarked)', 'eqBChE (Equus caballus)', 63),
  ('C[C@]12CCC(NC(=S)Nc3ccc(S(N)(=O)=O)cc3)CC1=CC[C@@H]1[C@@H]2CC[C@]2(C)C(C(=O)CNc3c4c(cc5ccccc35)CCCC4)CC[C@@H]12 (some centres unmarked)', 'eqBChE (Equus caballus)', 13.5),
  ('C[C@]12CCC(NC(=S)Nc3ccc(S(N)(=O)=O)cc3)CC1=CC[C@@H]1[C@@H]2CC[C@]2(C)C(C(=O)CNCc3ccccc3)CC[C@@H]12 (some centres unmarked)', 'eqBChE (Equus caballus)', 11.3),
  ('C[C@]12CCC(NC(=S)Nc3ccc(S(N)(=O)=O)cc3)CC1=CC[C@@H]1[C@@H]2CC[C@]2(C)C(C(=O)CN3c4ccccc4Sc4ccccc43)CC[C@@H]12 (some centres unmarked)', 'eqBChE (Equus caballus)', 15);
